Assay: NCI Yeast Anticancer Drug Screen. Data for the rad50 strain (AID 155);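 further: 0% = growth of vehicle-only cultures of the same strain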
Settings: S. cerevisiae rad50 strain growth inhibition; at 50.0 µM (retest, dose inferred, filed as 5.0); active compounds read high
About 79,000 compounds went through this panel and 15% of them were active in at least one assay; those are over-represented in the sample as a whole.
Kindly return True if reported growth inhibition is no lower than 90%; return False if it is lower.

hey, is growth inhibition for this one >= 90%? "Cc1ccccc1N1CCN(c2c3c(nc4ccccc24)CCCCC3)CC1" True

hey, is growth inhibition for this one >= 90%? "CC1=C(C(=O)Nc2cc(O)ccc2O)C(c2cccc([N+](=O)[O-])c2)C(C(=O)Nc2cc(O)ccc2O)=C(C)N1" False

hey, is growth inhibition for this one >= 90%? "CC(C)c1ccc(C(=O)OC2CCCCC2)cc1" True

hey, is growth inhibition for this one >= 90%? NC(=O)/C(=N\NC(=O)c1cc2ccccc2cc1O)C1C(=O)N(c2ccccc2)N=C1N (centres undefined) False

hey, is growth inhibition for this one >= 90%? "CCCCCCCCCCCCOC(=O)C[n+]1cccc(C(=O)Nc2ccc(Cl)cc2)c1" True

hey, is growth inhibition for this one >= 90%? CCOC1Oc2ccccc2-c2nc(SC)ncc21 (centres undefined) False

hey, is growth inhibition for this one >= 90%? "COc1ccc(C(=O)C(CN2CCCC2)CN2CCCC2)cc1" False

hey, is growth inhibition for this one >= 90%? "NC(=S)N/N=C/c1ccc(Cl)s1" False

hey, is growth inhibition for this one >= 90%? "Clc1ccc2[nH]c(-c3ccccc3)c(-c3ccccn3)c2c1" True

hey, is growth inhibition for this one >= 90%? "CCN(CC)CCOc1ccc(/C(C#N)=C/c2ccc(C(F)(F)F)cc2)cc1" True

hey, is growth inhibition for this one >= 90%? "c1ccc(CN2CCc3[nH]c4ccccc4c3C2)cc1" False

hey, is growth inhibition for this one >= 90%? "Oc1ccc(/C=N/NC(=S)Nc2ccccc2)nc1" False

hey, is growth inhibition for this one >= 90%? "c1ccc(CSc2nnc3c4ccccc4c4ccccc4c3n2)cc1" False

hey, is growth inhibition for this one >= 90%? "COC(=O)c1ccccc1C#Cc1ccccc1C(=O)OC" False

hey, is growth inhibition for this one >= 90%? "O=C1NC(=O)N(c2ccc(Cl)c(Cl)c2)C1=O" False

hey, is growth inhibition for this one >= 90%? Cc1occc1C(=S)Nc1ccc(Cl)c(C(=O)OC(C)C2CC2)c1 (centres undefined) False

hey, is growth inhibition for this one >= 90%? "Cc1ccc(N=C=C(c2ccccc2)c2ccccc2)cc1" False

hey, is growth inhibition for this one >= 90%? CC1C=C(COC(=O)Nc2ccccc2)ON1c1ccccc1 (centres undefined) True

hey, is growth inhibition for this one >= 90%? "CC#Cc1cc2c(cc1O)CC[C@@H]1[C@@H]2CC[C@]2(C)[C@@H](O)CC[C@@H]12" True

hey, is growth inhibition for this one >= 90%? "COc1cc(/C=C2/SC(=S)NC2=O)cc(OC)c1O" False

hey, is growth inhibition for this one >= 90%? "CC(=O)Nc1ccc2c(c1)/C(=N/O)c1ccccc1-2" False

hey, is growth inhibition for this one >= 90%? "COC/C=N/Nc1ccc([N+](=O)[O-])cc1" True

hey, is growth inhibition for this one >= 90%? "Nc1ccccc1SCc1csc(-c2ccc(Cl)cc2)n1" True

hey, is growth inhibition for this one >= 90%? "N#CC(C#N)=C(c1ccccc1)c1ccccc1" True

* * *

Assay: NCI Yeast Anticancer Drug Screen. Data for the sgs1 mgt1 strain (AID 161);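 further: 0% = growth of cultures given vehicle only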
Details: S. cerevisiae sgs1 mgt1 strain, at 5.0 µM (retest, dose inferred, filed as 0.5), active compounds read high
Compounds without any hit were thinned out: in the full panel of roughly 79,000, 15% have a hit. The source made the active and inactive calls. No stated cut-off is given here; in the data, active means growth inhibition above about 70%; inactive means the rest.
QUANTITY: growth inhibition

Value lookup for growth inhibition; key = "COc1ccc2nc3cc(Cl)ccc3c(NCCNc3c4ccc(Cl)cc4nc4ccc(OC)cc34)c2c1" 20% (inactive)

Value lookup for growth inhibition; key = "c1ccc2c(c1)[nH]c1cc3ccncc3cc12" -24% (inactive)

Value lookup for growth inhibition; key = "CCOC(=O)C(=CNC(=S)Nc1c(CC)cccc1C(C)(C)C)C(=O)OCC" -2% (inactive)

Value lookup for growth inhibition; key = "CCOC(=O)c1cnc(SCc2ccc(Cl)cc2Cl)nc1Cl" 16% (inactive)

Value lookup for growth inhibition; key = C=C1CC(Cn2ccc(=O)[nH]c2=O)(c2ccc(Cl)cc2)OC1=O (centres undefined) -22% (inactive)

Value lookup for growth inhibition; key = "C=CCNC(=O)NC1=CSC2=NC(=O)C3(NN12)c1ccccc1-c1ccccc13" -2% (inactive)

Value lookup for growth inhibition; key = "Clc1ccc(N=Cc2c3ccccc3cc3ccccc23)c(Cl)c1" -5% (inactive)

Value lookup for growth inhibition; key = "CC(C)(C)c1cc(C(O)(C(F)(F)F)C(F)(F)F)c(S)c(C(O)(C(F)(F)F)C(F)(F)F)c1" 9% (inactive)

Value lookup for growth inhibition; key = "O=S(=O)(Nc1ccc2ccccc2c1)c1ccccc1" 2% (inactive)

Value lookup for growth inhibition; key = "COc1ccc2c(c1)CC[C@@H]1[C@@H]2CC[C@]2(C)/C(=N/OCCN3CCCCC3)CC[C@@H]12" 33% (inactive)

Value lookup for growth inhibition; key = "CCOC(=O)/C(=C/c1ccccn1)C(=O)c1ccccc1" 17% (inactive)

Value lookup for growth inhibition; key = "CCCCCCCCCCCC1=NCCN1CCNCCCC" 6% (inactive)

Value lookup for growth inhibition; key = "CS(=O)(=O)OCCCN(CCCOS(C)(=O)=O)c1ccc(C=Nc2ccc(-c3csc(COc4ccc(Br)cc4Br)n3)cc2)cc1" 13% (inactive)

Value lookup for growth inhibition; key = COC(=O)c1ccccc1N=NN(C)CC1OC2OC(C)(C)OC2C1OC (centres undefined) 1% (inactive)

Value lookup for growth inhibition; key = COc1ccc(OC)c2c(C(=O)O)c(C(C)c3ccccc3)ccc12 (centres undefined) 2% (inactive)

Value lookup for growth inhibition; key = "C#CCNCc1ccccc1" 11% (inactive)

Value lookup for growth inhibition; key = "Cc1c2ccncc2cc2c3ccccc3n(C)c12" -45% (inactive)

Value lookup for growth inhibition; key = "CCOC(=O)NCCCc1ccc2oc3ccccc3c2c1" -3% (inactive)

Value lookup for growth inhibition; key = "CN(C)CC(CN(C)C)C(=O)c1ccc(Oc2ccccc2)cc1" 85% (active)

Value lookup for growth inhibition; key = "O=C(CNC(=O)c1ccccc1)NNc1ccccc1" 8% (inactive)

Value lookup for growth inhibition; key = "C(C#Cc1ccccc1)#CCc1ccccc1" 1% (inactive)

Value lookup for growth inhibition; key = "CCN(CC)CCCNc1c(O)cc(C)c2sc3ccccc3c(=O)c12" 4% (inactive)

Value lookup for growth inhibition; key = CN(C)CCC1(C2=CCCC2)CC/C(=C\c2ccccc2Cl)C1=O (centres undefined) 0% (inactive)

Value lookup for growth inhibition; key = "CCCCCCCNCCCCCC" 73% (active)

Value lookup for growth inhibition; key = "CCC(=O)Sc1ccccc1C(=O)Nc1ccc(Cl)cc1" 12% (inactive)

Value lookup for growth inhibition; key = "O=C(O)CSc1nc(-c2ccccc2)c(-c2ccccc2)n1-c1ccccn1" -12% (inactive)

Value lookup for growth inhibition; key = "CSC(SC)=C(C#N)C(=O)Nc1ccc(C)cc1" 37% (inactive)

Value lookup for growth inhibition; key = "CC1(C)CC([P+](c2ccccc2)(c2ccccc2)c2ccccc2)=NN1" 60% (inactive)

Value lookup for growth inhibition; key = "COc1ccc([N+](=O)[O-])cc1[I+]c1cc([N+](=O)[O-])ccc1OC" 49% (inactive)

Value lookup for growth inhibition; key = CCC1(c2ccc(N3C(=O)c4ccccc4C3=O)cc2)CCC(=O)NC1=O (centres undefined) -20% (inactive)

Value lookup for growth inhibition; key = CC(C)SCC1CO1 (centres undefined) -1% (inactive)

Value lookup for growth inhibition; key = "Cc1cc(N(CCOS(C)(=O)=O)CCOS(C)(=O)=O)ccc1C=Nc1ccc(-c2csc(-c3ccc(Cl)cc3)n2)cc1" 18% (inactive)

Value lookup for growth inhibition; key = CCOC(=O)C(C(=O)OCC)C1(c2ccccc2)OC(=O)c2ccccc21 (centres undefined) -1% (inactive)

Value lookup for growth inhibition; key = COc1cc(C(=O)NC(CCC(=O)O)C(=O)O)ccc1N(C)Cc1cnc2nc(N)nc(N)c2n1 (centres undefined) -7% (inactive)

Value lookup for growth inhibition; key = "Nc1c(-c2c(Cl)cccc2Cl)[n+]([O-])c2ccccc2[n+]1[O-]" 44% (inactive)

Value lookup for growth inhibition; key = "CN(C)CCNc1ccc(O)c2sc3ccccc3c(=O)c12" -7% (inactive)

Value lookup for growth inhibition; key = "OCC(CO)C1c2cccc3ccc4cccc1c4c23" -2% (inactive)

Value lookup for growth inhibition; key = "Cc1cc(SC#N)cc(C)c1O" -1% (inactive)

Value lookup for growth inhibition; key = CCN(CC)CCN1C(=O)c2c(c3c4cccc(Cl)c4n(C4OC(CO)C(OC)C(O)C4O)c3c3[nH]c4c(Cl)cccc4c23)C1=O (centres undefined) 21% (inactive)

Value lookup for growth inhibition; key = "Cc1cc2cc3c(c(C(=O)O)c2o1)C(=O)c1ccc2ccccc2c1C3" 19% (inactive)

Value lookup for growth inhibition; key = CCOC(=O)NC(c1ccc(C(NC(=O)OCC)P(=O)(O)NC23CC4CC(CC(C4)C2)C3)cc1)P(=O)(O)NC12CC3CC(CC(C3)C1)C2 (centres undefined) -8% (inactive)

Value lookup for growth inhibition; key = NC(CCCNc1nc(O)cc(=O)[nH]1)C(=O)O (centres undefined) -66% (inactive)

Value lookup for growth inhibition; key = CCC[CH2][Sn]([CH2]CCC)([O]C(=O)C(OC(C)=O)c1ccccc1)[O]C(=O)C(OC(C)=O)c1ccccc1 (centres undefined) 45% (inactive)

Value lookup for growth inhibition; key = "CC(=O)c1ccc(Br)cc1NC1=CC(=O)c2ncccc2C1=O" 81% (active)
